System: CDK8
Settings: Compound Concentration (nM):1000;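 also: KINOMEscan scanMAX binding as percent activity remaining versus control; lower means stronger binding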
readoutLabel: Percent Control
# do not omit the unit; it follows the number

Query: Kindly indicate its recorded Percent Control. Item: C[C@@H](Oc1cc(-n2cnc3ccc(OC4CCN(C)CC4)cc32)sc1C(N)=O)c1ccccc1Cl [GSK579289A]
Response: 100%

Query: Kindly indicate its recorded Percent Control. Item: Cl.O=S1CCN(Cc2ccc(-c3ccc4ncnc(Nc5ccc(OCc6ccccc6)c(F)c5)c4c3)o2)CC1 [GW576924A]
Response: 86%

Query: Kindly indicate its recorded Percent Control. Item: CN(C)CCNC(=O)Nc1ccc(N(C)c2ccnc(Nc3ccc(CS(C)(=O)=O)cc3)n2)cc1.Cl [GW830900A]
Response: 75%

Query: Kindly indicate its recorded Percent Control. Item: COC(=O)Nc1nc2ccc(Oc3ccc(NC(=O)Nc4cc(C(F)(F)F)ccc4F)cc3)cc2s1.Cl [GW693917A]
Response: 20%

Query: Kindly indicate its recorded Percent Control. Item: Cl.O=C(Nc1ccc(Oc2ccc3[nH]c(NC(=O)c4ccccc4)nc3c2)cc1)Nc1cc(C(F)(F)F)ccc1F [GW709042A]
Response: 54%

Query: Kindly indicate its recorded Percent Control. Item: NS(=O)(=O)c1ccc(Nc2ncc(-c3ccccc3)o2)cc1 [GW572399X]
Response: 93%

Query: Kindly indicate its recorded Percent Control. Item: CCS(=O)(=O)c1ccc(OC)c(Nc2ncc(-c3cccc(F)c3)o2)c1 [GW621970X]
Response: 100%

Query: Kindly indicate its recorded Percent Control. Item: NS(=O)(=O)c1ccc(N/N=C2\C(=O)Nc3ccc(C(=O)NCc4ccncc4)cc32)cc1 [GW300657X]
Response: 75%

###

Tested on: ERK5
Construct: gene MAPK7
Conditions: Compound Concentration (nM):1000
readoutLabel: Percent Control (%)
# number only, unit % dropped from output

Query: Kindly indicate its recorded Percent Control. Item: CN(C)CCNC(=O)Nc1ccc(N(C)c2ccnc(Nc3ccc(CS(C)(=O)=O)cc3)n2)cc1.Cl [GW830900A]
Response: 100

Query: Kindly indicate its recorded Percent Control. Item: C[C@@H](Oc1cc(-n2cnc3ccc(OC4CCN(C)CC4)cc32)sc1C(N)=O)c1ccccc1Cl [GSK579289A]
Response: 96

Query: Kindly indicate its recorded Percent Control. Item: Cc1cc(O)cc(C)c1/C=C/c1cncc(C(N)=O)c1 [GW435821X]
Response: 100

Query: Kindly indicate its recorded Percent Control. Item: COc1cc(/C=N/Nc2ncnc3[nH]ncc23)ccc1O [GW578748X]
Response: 100

Query: Kindly indicate its recorded Percent Control. Item: Cl.O=C(O[C@H]1CN[C@H](C#Cc2cc3ncnc(Nc4ccc5c(cnn5Cc5ccccc5)c4)c3s2)C1)N1CCOCC1 [GSK200398A]
Response: 89

Query: Kindly indicate its recorded Percent Control. Item: COc1cc(C)c(N(C)C(=O)CN(C)C)cc1Nc1nc(Nc2cccc(F)c2C(N)=O)c2cc[nH]c2n1
Response: 100

Query: Kindly indicate its recorded Percent Control. Item: COc1ccc2[nH]c3c4[nH]c5ccc(OC)cc5c4c4c(c3c2c1)C(=O)NC4=O [GW296115X]
Response: 69

Query: Kindly indicate its recorded Percent Control. Item: O=C1Nc2ccc(C(=O)c3ccco3)cc2C1=Cc1cc(Cl)c(O)c(Cl)c1 [GW406108X]
Response: 100

Query: Kindly indicate its recorded Percent Control. Item: NS(=O)(=O)c1ccc(Nc2ncc(-c3ccccc3)o2)cc1 [GW572399X]
Response: 100

Query: Kindly indicate its recorded Percent Control. Item: CC1=C(C(=O)Nc2ccc3[nH]ncc3c2)C(c2ccc3ccccc3c2)CC(=O)N1 (centres unmarked) [GSK270822A]
Response: 100

Query: Kindly indicate its recorded Percent Control. Item: Nc1ncnc2occ(-c3ccc(NC(=O)Nc4cc(C(F)(F)F)ccc4F)cc3)c12 [GW770249X]
Response: 100

Query: Kindly indicate its recorded Percent Control. Item: Cl.c1ccc(Cc2nc3ccc(Nc4ncnc5ccccc45)cc3[nH]2)cc1 [GR269666A]
Response: 100

Query: Kindly indicate its recorded Percent Control. Item: COc1cc(N2CCN(C(C)C)CC2)ccc1Nc1nc(Nc2ccc(F)cc2C(=O)NC[C@@H](O)CO)c2cc[nH]c2n1 [GSK1392956A]
Response: 99

Query: Kindly indicate its recorded Percent Control. Item: NS(=O)(=O)c1ccc(N/N=C2\C(=O)Nc3ccc(Cl)cc32)cc1 [GW280670X]
Response: 100

Query: Kindly indicate its recorded Percent Control. Item: CC1=C(C(=O)Nc2ccc3[nH]ncc3c2)C(c2ccc(Cl)c(Cl)c2)CC(=O)N1 (centres unmarked) [GSK299115A]
Response: 100

Query: Kindly indicate its recorded Percent Control. Item: COc1ccc2cc(-c3c(-c4ccncc4)nc(-c4ccc(S(C)(=O)=O)cc4C)n3C)ccc2c1
Response: 89

Query: Kindly indicate its recorded Percent Control. Item: NS(=O)(=O)c1ccc(N/N=C2\C(=O)Nc3ccc(C(=O)NCc4ccncc4)cc32)cc1 [GW300657X]
Response: 39

###

Tested on: NEK4
Conditions: Compound Concentration (nM):1000
readoutLabel: Percent Control (%)
# number only, unit % dropped from output

Query: Kindly indicate its recorded Percent Control. Item: Cl.O=C(Nc1ccc(Oc2ccc3[nH]c(NC(=O)c4ccccc4)nc3c2)cc1)Nc1cc(C(F)(F)F)ccc1F [GW709042A]
Response: 83

Query: Kindly indicate its recorded Percent Control. Item: CCc1ccc(Oc2nccc(-c3c(-c4ccc(F)cc4)ncn3C3CCNCC3)n2)cc1 [SB-242719]
Response: 96

Query: Kindly indicate its recorded Percent Control. Item: CCS(=O)(=O)c1ccc(OC)c(Nc2ncc(-c3cccc(F)c3)o2)c1 [GW621970X]
Response: 100

Query: Kindly indicate its recorded Percent Control. Item: CN(C)CCNC(=O)Nc1ccc(N(C)c2ccnc(Nc3ccc(CS(C)(=O)=O)cc3)n2)cc1.Cl [GW830900A]
Response: 100

Query: Kindly indicate its recorded Percent Control. Item: COC(=O)Nc1nc2ccc(Oc3ccc(NC(=O)Nc4cc(C(F)(F)F)ccc4F)cc3)cc2s1.Cl [GW693917A]
Response: 83

Query: Kindly indicate its recorded Percent Control. Item: COc1cc2ncnc(Nc3ccc4c(cnn4Cc4ccccc4)c3)c2cc1OC.Cl [GW282449A]
Response: 100

Query: Kindly indicate its recorded Percent Control. Item: COc1ccc(COc2ccc(Cc3cnc(N)nc3N)cc2OC)cc1 [GW632580X]
Response: 77

Query: Kindly indicate its recorded Percent Control. Item: COc1cccc(-c2c[nH]c3c(N/N=C/c4ccncc4)ncnc23)c1 [GW814408X]
Response: 100

Query: Kindly indicate its recorded Percent Control. Item: Cl.O=C(Nc1ccc(Oc2ccc3[nH]c(NC(=O)c4ccco4)nc3c2)cc1)Nc1cc(C(F)(F)F)ccc1F [GW683134A]
Response: 81

Query: Kindly indicate its recorded Percent Control. Item: Cc1cc(O)cc(C)c1/C=C/c1cncc(C(N)=O)c1 [GW435821X]
Response: 86

Query: Kindly indicate its recorded Percent Control. Item: COc1cc(/C=N/Nc2ncnc3[nH]ncc23)ccc1O [GW578748X]
Response: 98

Query: Kindly indicate its recorded Percent Control. Item: NS(=O)(=O)c1ccc(N/N=C2\C(=O)Nc3ccc(C(=O)NCc4ccncc4)cc32)cc1 [GW300657X]
Response: 89

Query: Kindly indicate its recorded Percent Control. Item: CN1CCN(C(=O)c2ccc(NC(=O)Nc3ccc(N(C)c4ccnc(Nc5ccc(CS(C)(=O)=O)cc5)n4)cc3)cc2)CC1.Cl [GW830263A]
Response: 85

Query: Kindly indicate its recorded Percent Control. Item: CN(C)c1cc2c(Nc3ccc4c(cnn4Cc4ccccc4)c3)ncnc2cn1 [GW282974X]
Response: 99

Query: Kindly indicate its recorded Percent Control. Item: O=C1Nc2ccc(C(=O)c3ccco3)cc2C1=Cc1cc(Cl)c(O)c(Cl)c1 [GW406108X]
Response: 83

Query: Kindly indicate its recorded Percent Control. Item: NS(=O)(=O)c1ccc(N/N=C2\C(=O)Nc3ccc(C(=O)NCCc4c[nH]cn4)cc32)cc1 [GW300660X]
Response: 80

Query: Kindly indicate its recorded Percent Control. Item: Cl.O=S1CCN(Cc2ccc(-c3ccc4ncnc(Nc5ccc(OCc6ccccc6)c(F)c5)c4c3)o2)CC1 [GW576924A]
Response: 100

Query: Kindly indicate its recorded Percent Control. Item: COc1cc(C=NNc2ncnc3c2cnn3-c2ccccc2)ccc1O [GW513184X]
Response: 100

Query: Kindly indicate its recorded Percent Control. Item: CC(C)COC(=O)c1ccc2c(c1)/C(=C/Nc1ccc(S(N)(=O)=O)cc1)C(=O)N2 [GW416981X]
Response: 90

Query: Kindly indicate its recorded Percent Control. Item: COc1ccc2cc(-c3c(-c4ccncc4)nc(-c4ccc(S(C)(=O)=O)cc4C)n3C)ccc2c1 [SB-633825]
Response: 75

Query: Kindly indicate its recorded Percent Control. Item: CCS(=O)(=O)c1ccc(OC)c(Nc2ncc(-c3cccc(OC)c3)o2)c1 [GW580509X]
Response: 100

Query: Kindly indicate its recorded Percent Control. Item: NS(=O)(=O)c1ccc(Nc2ncc(-c3ccccc3)o2)cc1 [GW572399X]
Response: 100

Query: Kindly indicate its recorded Percent Control. Item: C[C@@H](Oc1cc(-n2cnc3ccc(OC4CCN(C)CC4)cc32)sc1C(N)=O)c1ccccc1Cl [GSK579289A]
Response: 79

Query: Kindly indicate its recorded Percent Control. Item: COc1ccc2[nH]c3c4[nH]c5ccc(OC)cc5c4c4c(c3c2c1)C(=O)NC4=O [GW296115X]
Response: 85

Query: Kindly indicate its recorded Percent Control. Item: CCn1c(-c2nonc2N)nc2c(C#CC(C)(C)O)nc(OCCNC)cc21.Cl [GSK949675]
Response: 100

Query: Kindly indicate its recorded Percent Control. Item: NS(=O)(=O)c1ccc(N/N=C2\C(=O)Nc3ccc(-c4cnco4)cc32)cc1 [GW276655]
Response: 99

Query: Kindly indicate its recorded Percent Control. Item: C/C(Nc1ccc(S(N)(=O)=O)cc1)=C1/C(=O)Nc2ccccc21 [GW335962X]
Response: 77

Query: Kindly indicate its recorded Percent Control. Item: CC1=C(C(=O)Nc2ccc3[nH]ncc3c2)C(c2ccc(Cl)c(Cl)c2)CC(=O)N1 (stereo not shown) [GSK299115A]
Response: 89
